Reported values of GI50 at 72 h for individual entries
# TEST: Growth inhibition of HDF cells after 72 hrs by WST-1 assay
# Format: cell-based
# MEASUREMENT PARAMETERS: human

Cc1cc(O)cc(O)c1C(=O)O[C@H]1[C@@H]2COC(/C=C/CO)=CC2=CC(=O)[C@@]1(C)O	> 200 µM
C/C=C/C1=CC2=CC(=O)[C@@](C)(O)[C@@H](OC(=O)c3c(C)cc(O)cc3O)[C@@H]2CO1	> 200 µM
Nc1ccn([C@@H]2O[C@H](CO)[C@@H](O)[C@@H]2O)c(=O)n1	0.25 µM

Look up and report measured GI50 at 72 h for this entry: C/C=C/C1=CC2=CC(=O)[C@@](C)(OC(=O)c3c(C)cc(O)cc3O)[C@@H](O)[C@@H]2CO1
> 200 µM

###

# TEST TARGET: DNA polymerase kappa (Homo sapiens, UniProt Q9UBT6)
# Sequence (Q9UBT6 whole entry): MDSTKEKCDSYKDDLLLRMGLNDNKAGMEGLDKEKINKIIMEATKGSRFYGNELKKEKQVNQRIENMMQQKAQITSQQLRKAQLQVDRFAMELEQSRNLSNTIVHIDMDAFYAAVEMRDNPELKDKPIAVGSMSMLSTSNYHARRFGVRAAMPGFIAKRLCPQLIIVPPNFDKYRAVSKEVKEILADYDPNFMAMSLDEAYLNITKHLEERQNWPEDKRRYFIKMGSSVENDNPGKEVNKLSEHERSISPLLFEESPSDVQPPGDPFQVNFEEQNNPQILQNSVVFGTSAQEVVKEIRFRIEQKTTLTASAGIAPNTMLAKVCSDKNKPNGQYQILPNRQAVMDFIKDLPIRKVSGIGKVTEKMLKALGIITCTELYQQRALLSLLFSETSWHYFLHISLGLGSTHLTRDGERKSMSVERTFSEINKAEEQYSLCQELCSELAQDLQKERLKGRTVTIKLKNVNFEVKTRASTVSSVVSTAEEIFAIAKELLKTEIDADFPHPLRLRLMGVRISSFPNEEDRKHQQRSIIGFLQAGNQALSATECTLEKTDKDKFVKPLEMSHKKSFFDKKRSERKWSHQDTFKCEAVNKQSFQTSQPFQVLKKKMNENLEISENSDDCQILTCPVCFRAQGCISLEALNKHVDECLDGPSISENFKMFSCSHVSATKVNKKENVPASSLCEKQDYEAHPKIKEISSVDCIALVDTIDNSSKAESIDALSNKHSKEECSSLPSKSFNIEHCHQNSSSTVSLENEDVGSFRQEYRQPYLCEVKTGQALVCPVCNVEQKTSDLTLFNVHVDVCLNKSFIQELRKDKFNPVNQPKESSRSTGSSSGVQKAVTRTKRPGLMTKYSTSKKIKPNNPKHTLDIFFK
# TEST: Non-competitive inhibition of human C-terminal-His6-tagged DNA polymerase kappa expressed in Escherichia coli using ploy(dA)/oligo(dT)18 as substrate by Dixon plot analysis
QUANTITY: pKi
Lab note: report pKi as minus log10 of the concentration in molar units, number only.

Look up and report measured pKi for this entry: C/C=C/C1=CC2=CC(=O)[C@@](C)(OC(=O)c3c(C)cc(O)cc3O)[C@@H](O)[C@@H]2CO1 [PINOPHILIN A]
4.74

###

# TEST: Competitive inhibition of calf DNA polymerase alpha using dTTP as substrate by Dixon plot analysis
# Design: species or system Bos taurus
QUANTITY: Ki (µM)
# unit: µM | format: bare number

Look up and report measured Ki for this entry: C/C=C/C1=CC2=CC(=O)[C@@](C)(OC(=O)c3c(C)cc(O)cc3O)[C@@H](O)[C@@H]2CO1
9.6

###

# TEST TARGET: DNA polymerase eta (Homo sapiens)
Reported values of pIC50 for individual entries
Lab note: report pIC50 as minus log10 of the concentration in molar units, number only.

Below, 2 molecules whose answers are already recorded.
C/C=C/C1=CC2=CC(=O)[C@@](C)(OC(=O)c3c(C)cc(O)cc3O)[C@@H](O)[C@@H]2CO1 [PINOPHILIN A]	4.29
C/C=C/C1=CC2=CC(=O)[C@@](C)(O)[C@@H](OC(=O)c3c(C)cc(O)cc3O)[C@@H]2CO1	4.20

Then there is this molecule:
Identify measured pIC50 obtained with DNA polymerase eta (Homo sapiens) for Cc1cc(O)cc(O)c1C(=O)O[C@H]1[C@@H]2COC(/C=C/CO)=CC2=CC(=O)[C@@]1(C)O [PINOPHILIN B] .
4.04

###

As an illustration, consider measured IC50 for molecules on Polynucleotide kinase (Enterobacteria phage T4).
Sequence (P06855 whole entry, looked up): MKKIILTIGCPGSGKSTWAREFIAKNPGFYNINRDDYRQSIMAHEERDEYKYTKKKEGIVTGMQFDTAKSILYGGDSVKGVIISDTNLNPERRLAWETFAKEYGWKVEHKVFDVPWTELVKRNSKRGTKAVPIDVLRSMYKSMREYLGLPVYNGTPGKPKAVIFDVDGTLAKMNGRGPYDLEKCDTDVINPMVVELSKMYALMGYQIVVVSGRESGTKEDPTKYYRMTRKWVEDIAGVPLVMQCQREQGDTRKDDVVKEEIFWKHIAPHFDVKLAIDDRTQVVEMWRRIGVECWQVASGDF

Identify measured IC50 obtained with Polynucleotide kinase (Enterobacteria phage T4) for C/C=C/C1=CC2=CC(=O)[C@@](C)(O)[C@@H](OC(=O)c3c(C)cc(O)cc3O)[C@@H]2CO1 .
> 200 µM

Identify measured IC50 obtained with Polynucleotide kinase (Enterobacteria phage T4) for C/C=C/C1=CC2=CC(=O)[C@@](C)(OC(=O)c3c(C)cc(O)cc3O)[C@@H](O)[C@@H]2CO1 .
> 200 µM

Identify measured IC50 obtained with Polynucleotide kinase (Enterobacteria phage T4) for Cc1cc(O)cc(O)c1C(=O)O[C@H]1[C@@H]2COC(/C=C/CO)=CC2=CC(=O)[C@@]1(C)O .
> 200 µM

###

Reported values of IC50 for individual entries
# TEST: Inhibition of T7 RNA polymerase assessed as inhibition of incorporation of [3H]UTP after 30 mins by liquid scintillation counting
# Design: species or system Escherichia phage T7

Below, 2 molecules whose answers are already recorded.
Cc1cc(O)cc(O)c1C(=O)O[C@H]1[C@@H]2COC(/C=C/CO)=CC2=CC(=O)[C@@]1(C)O [PINOPHILIN B]	> 200 µM
C/C=C/C1=CC2=CC(=O)[C@@](C)(OC(=O)c3c(C)cc(O)cc3O)[C@@H](O)[C@@H]2CO1 [PINOPHILIN A]	> 200 µM

Then there is this molecule:
Look up and report measured IC50 for this entry: C/C=C/C1=CC2=CC(=O)[C@@](C)(O)[C@@H](OC(=O)c3c(C)cc(O)cc3O)[C@@H]2CO1
> 200 µM

###

As an illustration, consider measured IC50 for molecules on DNA polymerase beta (Rattus norvegicus).

Below, 2 molecules whose answers are already recorded.
Cc1cc(O)cc(O)c1C(=O)O[C@H]1[C@@H]2COC(/C=C/CO)=CC2=CC(=O)[C@@]1(C)O	> 200 µM
C/C=C/C1=CC2=CC(=O)[C@@](C)(OC(=O)c3c(C)cc(O)cc3O)[C@@H](O)[C@@H]2CO1	> 200 µM

Then there is this molecule:
Look up and report measured IC50 for this entry: C/C=C/C1=CC2=CC(=O)[C@@](C)(O)[C@@H](OC(=O)c3c(C)cc(O)cc3O)[C@@H]2CO1
> 200 µM

###

# TEST TARGET: DNA polymerase iota (Mus musculus, UniProt Q6R3M4)
# Sequence (Q6R3M4 whole entry): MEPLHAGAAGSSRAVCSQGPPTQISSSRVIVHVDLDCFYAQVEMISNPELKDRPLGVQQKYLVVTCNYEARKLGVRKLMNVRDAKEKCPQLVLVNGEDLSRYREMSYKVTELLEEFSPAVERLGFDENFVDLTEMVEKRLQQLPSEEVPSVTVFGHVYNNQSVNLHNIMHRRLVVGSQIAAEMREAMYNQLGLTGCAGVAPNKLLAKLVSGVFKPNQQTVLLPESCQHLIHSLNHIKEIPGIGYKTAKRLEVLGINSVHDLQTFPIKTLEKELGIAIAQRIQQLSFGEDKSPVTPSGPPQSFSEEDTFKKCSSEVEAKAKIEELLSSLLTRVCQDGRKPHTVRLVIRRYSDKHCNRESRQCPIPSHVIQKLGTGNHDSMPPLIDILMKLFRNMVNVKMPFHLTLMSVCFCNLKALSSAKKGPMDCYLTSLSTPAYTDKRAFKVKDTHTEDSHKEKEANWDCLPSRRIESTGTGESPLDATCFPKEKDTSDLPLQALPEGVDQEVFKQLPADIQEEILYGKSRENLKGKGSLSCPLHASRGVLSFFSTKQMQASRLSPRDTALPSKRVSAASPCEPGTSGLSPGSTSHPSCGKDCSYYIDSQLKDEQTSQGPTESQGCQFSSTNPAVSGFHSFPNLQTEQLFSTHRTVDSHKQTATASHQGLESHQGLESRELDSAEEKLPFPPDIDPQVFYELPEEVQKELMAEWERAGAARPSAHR
# TEST: Inhibition of mouse recombinant C-terminal-His6-tagged DNA polymerase iota assessed as inhibition of incorporation of dTTP into poly(dA)/oligo(dT)18 after 60 mins
QUANTITY: IC50 (µM)
# unit: µM | format: bare number

Below, 2 compounds whose answers are already recorded.
C/C=C/C1=CC2=CC(=O)[C@@](C)(O)[C@@H](OC(=O)c3c(C)cc(O)cc3O)[C@@H]2CO1	63.8
Cc1cc(O)cc(O)c1C(=O)O[C@H]1[C@@H]2COC(/C=C/CO)=CC2=CC(=O)[C@@]1(C)O [PINOPHILIN B]	91

Then there is this compound:
Look up and report measured IC50 for this entry: C/C=C/C1=CC2=CC(=O)[C@@](C)(OC(=O)c3c(C)cc(O)cc3O)[C@@H](O)[C@@H]2CO1 [PINOPHILIN A]
50.2

###

# TEST TARGET: DNA polymerase delta catalytic subunit (Homo sapiens)
# Sequence (P28340 whole entry): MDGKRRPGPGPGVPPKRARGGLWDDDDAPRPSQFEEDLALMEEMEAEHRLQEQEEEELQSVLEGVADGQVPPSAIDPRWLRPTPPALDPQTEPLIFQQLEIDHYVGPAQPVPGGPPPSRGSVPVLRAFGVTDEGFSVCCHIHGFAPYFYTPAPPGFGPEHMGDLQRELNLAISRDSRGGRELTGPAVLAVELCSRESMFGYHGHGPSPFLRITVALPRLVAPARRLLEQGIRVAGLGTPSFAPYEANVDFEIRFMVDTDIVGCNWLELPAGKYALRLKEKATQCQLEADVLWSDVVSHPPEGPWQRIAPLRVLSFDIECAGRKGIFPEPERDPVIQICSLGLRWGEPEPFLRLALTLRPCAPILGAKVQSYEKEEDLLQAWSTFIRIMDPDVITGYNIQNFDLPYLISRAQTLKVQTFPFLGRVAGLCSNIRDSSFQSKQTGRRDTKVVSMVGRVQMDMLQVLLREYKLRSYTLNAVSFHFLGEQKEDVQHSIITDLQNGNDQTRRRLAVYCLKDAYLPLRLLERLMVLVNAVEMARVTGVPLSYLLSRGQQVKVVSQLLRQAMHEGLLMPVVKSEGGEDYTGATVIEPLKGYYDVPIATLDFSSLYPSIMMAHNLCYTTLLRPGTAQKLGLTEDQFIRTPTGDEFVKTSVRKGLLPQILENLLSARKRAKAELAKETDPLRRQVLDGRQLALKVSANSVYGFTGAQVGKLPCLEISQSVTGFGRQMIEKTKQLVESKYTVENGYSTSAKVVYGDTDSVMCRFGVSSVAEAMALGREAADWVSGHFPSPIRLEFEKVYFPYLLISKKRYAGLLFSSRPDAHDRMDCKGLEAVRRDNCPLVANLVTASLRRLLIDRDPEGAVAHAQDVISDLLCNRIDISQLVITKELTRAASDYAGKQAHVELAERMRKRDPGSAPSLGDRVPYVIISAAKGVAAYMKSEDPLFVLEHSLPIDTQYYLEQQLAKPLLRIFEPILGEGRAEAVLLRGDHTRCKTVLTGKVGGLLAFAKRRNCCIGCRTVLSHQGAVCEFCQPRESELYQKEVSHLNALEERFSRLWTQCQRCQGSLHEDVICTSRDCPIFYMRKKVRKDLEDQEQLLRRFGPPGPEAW
# TEST: Inhibition of human DNA polymerase delta assessed as inhibition of incorporation of dTTP into poly(dA)/oligo(dT)18 after 60 mins
QUANTITY: IC50 (µM)
# unit: µM | format: bare number

C/C=C/C1=CC2=CC(=O)[C@@](C)(OC(=O)c3c(C)cc(O)cc3O)[C@@H](O)[C@@H]2CO1 [PINOPHILIN A]	54.5

Look up and report measured IC50 for this entry: C/C=C/C1=CC2=CC(=O)[C@@](C)(O)[C@@H](OC(=O)c3c(C)cc(O)cc3O)[C@@H]2CO1
68

Look up and report measured IC50 for this entry: Cc1cc(O)cc(O)c1C(=O)O[C@H]1[C@@H]2COC(/C=C/CO)=CC2=CC(=O)[C@@]1(C)O [PINOPHILIN B]
96.4
